# TARGET DESC: Melanocyte-stimulating hormone receptor (Homo sapiens)
# Sequence (Q01726 whole entry): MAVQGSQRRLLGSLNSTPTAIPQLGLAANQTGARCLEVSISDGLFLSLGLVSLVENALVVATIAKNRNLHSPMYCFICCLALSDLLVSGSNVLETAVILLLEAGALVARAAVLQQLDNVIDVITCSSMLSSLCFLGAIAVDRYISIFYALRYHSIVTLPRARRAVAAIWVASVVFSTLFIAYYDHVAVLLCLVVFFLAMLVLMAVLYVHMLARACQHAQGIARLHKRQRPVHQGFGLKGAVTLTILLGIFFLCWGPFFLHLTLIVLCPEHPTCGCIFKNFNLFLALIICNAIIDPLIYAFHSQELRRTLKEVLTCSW
# ASSAY NAME: Agonist activity at human MC1R expressed in CHO cells after 4 hrs by luciferase reporter gene assay
# Assay type: functional, cell-based
# RUN CONDITIONS: read-out: pEC50 (converted)
METRIC: EC50

Reference set, count: 2
COMPOUND: CC(C)N(C(=O)CN1C=CN(c2ccccc2)C(=O)C(Cc2n[nH]c3cc(F)ccc23)C1=O)c1ccccc1 (racemic)
RESULT: 186 nM
--
COMPOUND: CC(C)N(C(=O)CN1C=CN(c2ccccc2)C(=O)C(Cc2n[nH]c3ccccc23)C1=O)c1ccc(N2CCOCC2)cc1 (racemic)
RESULT: 832 nM

Here is the next item to consider.
Asked: For COc1ccc(N(C(=O)CN2C=CN(c3cccnc3)C(=O)C(Cc3n[nH]c4cc(F)ccc34)C2=O)C(C)C)cc1 (racemic) , what is its reported EC50?
Given back: 12.6 nM

Ref: ChEMBL document CHEMBL1157626
